target: Epidermal growth factor receptor (Homo sapiens); experiment: biochemical; format: cell-based
Sequence (P00533 whole entry): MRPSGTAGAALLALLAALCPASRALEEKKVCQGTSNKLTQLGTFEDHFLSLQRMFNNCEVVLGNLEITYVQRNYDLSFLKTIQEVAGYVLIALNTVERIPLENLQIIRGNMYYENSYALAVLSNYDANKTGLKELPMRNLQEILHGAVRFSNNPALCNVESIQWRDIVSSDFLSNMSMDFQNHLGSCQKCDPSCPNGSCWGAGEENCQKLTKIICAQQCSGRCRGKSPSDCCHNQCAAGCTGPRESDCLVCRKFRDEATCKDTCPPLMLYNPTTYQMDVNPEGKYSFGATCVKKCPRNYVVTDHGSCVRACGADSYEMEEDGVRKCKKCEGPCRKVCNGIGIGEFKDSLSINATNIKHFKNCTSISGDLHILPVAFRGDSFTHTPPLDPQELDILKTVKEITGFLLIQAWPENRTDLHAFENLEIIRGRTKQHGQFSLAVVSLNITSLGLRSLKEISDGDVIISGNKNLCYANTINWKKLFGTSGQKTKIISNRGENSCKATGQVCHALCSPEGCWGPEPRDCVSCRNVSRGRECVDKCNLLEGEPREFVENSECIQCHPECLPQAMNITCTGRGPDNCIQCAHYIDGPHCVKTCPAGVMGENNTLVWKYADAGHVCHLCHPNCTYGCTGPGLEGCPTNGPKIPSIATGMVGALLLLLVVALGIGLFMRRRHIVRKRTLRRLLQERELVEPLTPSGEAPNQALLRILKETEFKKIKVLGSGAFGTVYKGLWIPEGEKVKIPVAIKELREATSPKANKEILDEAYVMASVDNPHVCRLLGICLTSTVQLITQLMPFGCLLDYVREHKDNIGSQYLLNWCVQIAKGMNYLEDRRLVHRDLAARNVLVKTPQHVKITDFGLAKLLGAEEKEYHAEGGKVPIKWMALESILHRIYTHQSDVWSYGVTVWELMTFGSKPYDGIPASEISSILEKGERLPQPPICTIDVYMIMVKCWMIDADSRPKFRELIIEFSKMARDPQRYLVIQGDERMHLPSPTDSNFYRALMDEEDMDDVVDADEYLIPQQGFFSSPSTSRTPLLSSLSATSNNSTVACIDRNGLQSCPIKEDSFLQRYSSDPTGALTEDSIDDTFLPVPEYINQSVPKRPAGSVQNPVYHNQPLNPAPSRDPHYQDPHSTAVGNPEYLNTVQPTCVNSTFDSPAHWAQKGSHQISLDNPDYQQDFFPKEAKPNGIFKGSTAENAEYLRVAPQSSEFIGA
PROPERTY NAME: pIC50
// scale note: pIC50 = -log10(conc_M); give the bare number

Name the value of pIC50 reported for S=C(Nc1cc(Cl)cc(Cl)c1)Nc1ccc2ncnc(Nc3cccc(Br)c3)c2c1 when tested on Epidermal growth factor receptor (Homo sapiens).
6.83

Name the value of pIC50 reported for S=C(Nc1ccc(Cl)c(Cl)c1)Nc1ccc2ncnc(Nc3cccc(Br)c3)c2c1 when tested on Epidermal growth factor receptor (Homo sapiens).
6.88

Name the value of pIC50 reported for Oc1cccc(Nc2ncnc3ccc(NC(=S)NCc4ccccc4)cc23)c1 when tested on Epidermal growth factor receptor (Homo sapiens).
7.20

Name the value of pIC50 reported for S=C(Nc1ccc2ncnc(Nc3cccc(Cl)c3)c2c1)Nc1ncc(Cl)s1 when tested on Epidermal growth factor receptor (Homo sapiens).
6.92

Name the value of pIC50 reported for NS(=O)(=O)c1ccc(NC(=S)Nc2ccc3ncnc(Nc4cccc(Br)c4)c3c2)cc1 when tested on Epidermal growth factor receptor (Homo sapiens).
8.02

Name the value of pIC50 reported for O=C(Nc1ccc2ncnc(Nc3cccc(Br)c3)c2c1)c1ccco1 when tested on Epidermal growth factor receptor (Homo sapiens).
8.08
